study-system: CYP (isoform not stated) (Homo sapiens, UniProt P04798+P05177+P05181+P08684+P10632+P10635+P11509+P11712+P13584+P20813+P20815+P20853+P24462+P24903+P33260+P33261+P51589+P78329+P98187+Q02928+Q08477+Q16678+Q16696+Q5TCH4+Q6VVX0+Q7Z449+Q8TAV3+Q96SQ9+Q9HB55)
protocol-text: Inhibition of CYP (unknown origin) at 3 uM relative to control
Assay type: ADME, protein assay
measurement-kind: inhibition at 3 µM

Query: # get_value(readout='inhibition at 3 µM', item= `C[C@@H]1OCCC[C@]1(C)Nc1c(Nc2ccnc(C(=O)N(C)C)c2O)c(=O)c1=O` )
Result: < 5%

Data origin: ChEMBL document CHEMBL6153144
